Observation type: IC50 (µM)
Give just the numeric value; µM need not be written.

Ask: Answer with IC50 of `CC(C)(c1ccc(-c2ccncc2)o1)N1CCN(C[C@@H](O)C[C@@H](Cc2ccccc2)C(=O)N[C@H]2c3ccccc3OC[C@H]2O)[C@H](C(=O)NCC(F)(F)F)C1` measured for Cytochrome P450 2D6 (Homo sapiens, UniProt P10635).
Reply: 0.36

Ask: Answer with IC50 of `O=C(N[C@H]1c2ccccc2OC[C@H]1O)[C@H](Cc1ccccc1)C[C@H](O)CN1CCN(Cc2ccc(-c3cccnc3)o2)C[C@H]1C(=O)NCC(F)(F)F` measured for Cytochrome P450 2D6 (Homo sapiens, UniProt P10635).
Reply: 6.4

Ask: Answer with IC50 of `O=C(N[C@H]1c2ccccc2OC[C@H]1O)[C@H](Cc1ccccc1)C[C@H](O)CN1CCN(Cc2ccc(-c3ccccn3)o2)C[C@H]1C(=O)NCC(F)(F)F` measured for Cytochrome P450 2D6 (Homo sapiens, UniProt P10635).
Reply: 29.6

Ask: Answer with IC50 of `O=C(N[C@H]1c2ccccc2OC[C@H]1O)[C@H](Cc1ccccc1)C[C@H](O)CN1CCN(Cc2ccc(-c3ccncc3)o2)C[C@H]1C(=O)NCC(F)(F)F` measured for Cytochrome P450 2D6 (Homo sapiens, UniProt P10635).
Reply: 0.53
